- TARGET DESC: Receptor tyrosine-protein kinase erbB-2 (Homo sapiens) (UniProt P04626)
- Sequence (P04626 whole entry, looked up): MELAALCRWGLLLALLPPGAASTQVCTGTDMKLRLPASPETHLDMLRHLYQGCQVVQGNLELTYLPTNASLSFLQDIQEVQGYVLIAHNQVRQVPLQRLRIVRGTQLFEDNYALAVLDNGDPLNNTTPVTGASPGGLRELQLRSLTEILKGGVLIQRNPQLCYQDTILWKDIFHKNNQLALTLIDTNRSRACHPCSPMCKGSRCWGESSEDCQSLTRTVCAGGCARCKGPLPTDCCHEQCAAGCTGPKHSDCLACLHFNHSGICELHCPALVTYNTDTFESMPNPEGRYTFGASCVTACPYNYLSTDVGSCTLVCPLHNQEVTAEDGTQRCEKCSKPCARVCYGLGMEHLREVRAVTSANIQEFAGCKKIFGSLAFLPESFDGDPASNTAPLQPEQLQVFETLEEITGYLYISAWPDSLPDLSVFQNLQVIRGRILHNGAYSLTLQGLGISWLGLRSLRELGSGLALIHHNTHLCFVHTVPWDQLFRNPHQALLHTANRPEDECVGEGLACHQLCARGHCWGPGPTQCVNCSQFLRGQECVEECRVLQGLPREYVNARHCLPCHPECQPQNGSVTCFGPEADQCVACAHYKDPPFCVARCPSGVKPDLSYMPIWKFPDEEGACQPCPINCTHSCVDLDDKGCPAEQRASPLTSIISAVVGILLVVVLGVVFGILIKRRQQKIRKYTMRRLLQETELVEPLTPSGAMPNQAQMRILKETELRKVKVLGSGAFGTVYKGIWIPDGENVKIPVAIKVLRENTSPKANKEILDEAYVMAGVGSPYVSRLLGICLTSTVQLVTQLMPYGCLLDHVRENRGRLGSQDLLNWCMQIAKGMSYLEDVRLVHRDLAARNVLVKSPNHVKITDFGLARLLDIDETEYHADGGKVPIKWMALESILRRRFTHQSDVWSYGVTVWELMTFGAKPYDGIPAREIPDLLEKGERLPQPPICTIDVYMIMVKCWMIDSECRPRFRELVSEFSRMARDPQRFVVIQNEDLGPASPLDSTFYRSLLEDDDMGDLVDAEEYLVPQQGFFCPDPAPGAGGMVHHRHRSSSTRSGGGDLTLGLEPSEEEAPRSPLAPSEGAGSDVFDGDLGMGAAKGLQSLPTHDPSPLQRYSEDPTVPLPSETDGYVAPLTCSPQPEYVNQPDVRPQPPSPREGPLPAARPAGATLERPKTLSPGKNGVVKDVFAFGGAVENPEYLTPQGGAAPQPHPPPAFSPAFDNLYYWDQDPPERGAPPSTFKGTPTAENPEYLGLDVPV
- MEASUREMENT NOTES: reducers of endogenous Her2 protein level, primary screen, SKBR3 breast tumor cells, AlphaScreen, ATP viability (AID 461);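 for viability: percent of carrier control wells set as 100% viability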
- EXPERIMENTAL PARAMETERS: 18-24 h, at 10 µM
The source made the active and inactive calls.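 Rule for the calls: active = Her2 level under about 52% in both replicate screens, with viability over 70% of control (limit read from the data); inconclusive = Her2 under the limit in one screen only, or viability under 70%; inactive = Her2 level above the set limit.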
Hi! Could you answer with just one of these? active, inactive

Here's what some known entries look like.
Cc1ccc(S(=O)(=O)NC(=O)c2cc(C)n(CCCn3ccnc3)c2C)cc1 | inactive
Cc1ccc2c(c1C)NC(C)CC2C (stereo unspecified) | inactive
Cc1cccc2c1N(CC(=O)OC(C)C)C(=O)C2=O | inactive

Prompt: Could you kindly confirm the outcome this assay logged for CCCn1c(SCC(=O)N2CCN(c3ccccc3)CC2)nc2ccccc2c1=O ?
Completion: inactive

Prompt: Could you kindly confirm the outcome this assay logged for O=C1CS/C(=N\C(=O)N2c3ccccc3Sc3ccccc32)N1 ?
Completion: inactive

Prompt: Could you kindly confirm the outcome this assay logged for Cc1cc2c(cc(C(=O)NCc3cccnc3)n2Cc2ccc(Cl)cc2)o1 ?
Completion: inactive

Prompt: Could you kindly confirm the outcome this assay logged for CCOC(=O)C1=C(C)Nc2ncnn2C1c1cc(OC)ccc1OC (stereo unspecified) ?
Completion: inactive

Prompt: Could you kindly confirm the outcome this assay logged for COc1ccccc1S(=O)(=O)n1cc(Cc2ccccc2)c(N)n1 ?
Completion: inactive

Prompt: Could you kindly confirm the outcome this assay logged for COCc1cc(C)nc(SCC(=O)Nc2cccc(C)c2C)c1C#N ?
Completion: inactive

Prompt: Could you kindly confirm the outcome this assay logged for CC(=O)Nc1ccccc1-c1nc2ccc(C(=O)N3CCN(c4ccccc4)CC3)cc2[nH]c1=O ?
Completion: inactive

Prompt: Could you kindly confirm the outcome this assay logged for COc1ccc(C2CC(=O)c3cnc(NC(=O)c4ccccc4OC)nc3C2)c(OC)c1 (stereo unspecified) ?
Completion: active

----------
Field: viability. Provide a value for each of the compounds that follow.
- MEASUREMENT NOTES: reducers of endogenous Her2 protein level, primary screen, SKBR3 breast tumor cells, AlphaScreen, ATP viability (AID 461);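 for viability: percent of carrier control wells set as 100% viability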
- EXPERIMENTAL PARAMETERS: 18-24 h, measured here: SKBR3 viability, ATP luminescence, at 10 µM
Answers are plain numbers, in %.

Observe how each entry below is paired with its result.
COc1ccc(-c2noc(COc3ccc4ccccc4c3Br)n2)cc1OC | 129
COc1ccccc1N(CC(=O)NCc1ccccc1)S(C)(=O)=O | 103
O=C(O)CCC1(C(=O)O)OCCc2ccccc21 (configuration not stated) | 112
COc1ccc2c(c1)C(=NO)c1cc(OC)ccc1-2 | 120
FC(F)(F)c1nnc2ccc(NCn3nnc4ccccc43)nn12 | 102

Working through the 6 compounds below one at a time, give viability for each.
1. Cc1ccc(OCC(=O)NCCN2CCCC2)cc1
2. CCOC(=O)/C(C#N)=C1\Nc2ccccc2N=C1N(CC(C)C)CC(C)C
3. CN=Cc1cc(-c2ccccc2)sc1O
4. CNC(=O)Nc1cccc(C(F)(F)F)c1
5. COc1ccccc1N1CCN(C(=O)c2oc3cc(C)c(C)cc3c2C)CC1
6. COc1ccc(-n2ncc3c(=O)n(CC(=O)OCc4ccccc4)cnc32)cc1

Completion:
1. 97.5
2. 80
3. 82
4. 105
5. 117
6. 83

Prompt: Looking for the measured viability of COCCn1c(NCc2ccc(C)cc2)nc2c1c(=O)[nH]c(=O)n2C , can you help?
Completion: 108

Entry source: PubChem BioAssay
